The reader will find reported protein stability index values listed item by item below.
- Procedure Summary: protein stability index of a GFP-peptide fusion (GPS, HEK-293T) (PSI 1-6); higher = more stable;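 also: 24-mer peptide tiles fused after GFP, lentivirally expressed, FACS-sorted into six equal bins by GFP/DsRed ratio, decoded by Illumina sequencing, PSI is the read-weighted mean bin number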
- Test Parameters: treatment: DMSO; c terminus: a fixed tail appended
// return just the number, without any unit appended

seq="GRGVKKRLVLCMELANGKPQTRSG [ADAMTSL2]" experimental_result=2.19
seq="GYQMLGNVVTIGLAFFPFLHRLFR [PHTF1]" experimental_result=3.71
seq="VSNMSGPSGEEEAKVGPGLPDGCQ [CBY2]" experimental_result=5.46
seq="ALIETSYVKVLHHMVKISGGPRIS [MAGEA6]" experimental_result=2.93
seq="DMERFMEEMRELRRKIRELQLRYS [BEX5]" experimental_result=2.44
seq="HDIDCQWVDITDVPPGDYLFQVVI [LOXL2]" experimental_result=3.01

For record FGKKEKGRLIQLSRDGATGHVLLT [PPFIA4] the listed protein stability index is 2.71

Field protein stability index (entry GRRVNAKMPVYSGSRPACQLQVPT [ELOA2] ) reads 3.11

GET /value?item= VLQSVRELSRSRKLYGQRERVWAL [FCHSD1] &field=protein stability index returns 2.06

// protein stability index value for VELLPPAPKGKGRKPAAGAQSAGT [BRD3] : 4.58

Entry SPKRQLQFYRNLGKSGLRVSCLGL [KCNAB2] , protein stability index reported as 2.3

Looking up MVHQRKLEAELLQIEERHQEKKRK [SMARCE1] , I found its protein stability index recorded as 4.58

====

- Procedure Summary: protein stability index of a GFP-peptide fusion (GPS, HEK-293T) (PSI 1-6); higher = more stable
- Test Parameters: treatment: DMSO; c terminus: a fixed tail appended
Output 1.0 for protein stability index not less than 3; output 0.0 otherwise.

These recorded examples may help you get a feel for the data.
seq="MESKEKRAVNSLSMENANQENEEK [BEX1]" class_label=1.0
seq="VKVPTTLAEYCVKTKAPAPDEGSD [CDC34]" class_label=1.0
seq="ARRELQAEREALQARLRDVSRREG [ZBED3]" class_label=1.0
seq="AGRRMFPSYKVKVTGLNPKTKYIL [TBX5]" class_label=0.0
seq="QMLWELVLLGEPLVVMAPSPSESS [DENND6A]" class_label=0.0

Could you verify whether the entry AEAAPELDLFAMKPPETSVPVVTP [SNAP91] shows protein stability index of no less than 3?
1.0

Threshold query (protein stability index >= 3) on LGAMMLLESPIDPQPLSFKEPPLL [APMAP]
0.0

# check: protein stability index of IYRDSYPRNPTVRWGYVAMKFAQV [SOAT1] is greater than or equal to 3
0.0

Does protein stability index meet or surpass 3 for QPCSIVDVEFLPVYHPSPEESRDP [LPCAT4] ?
1.0

Check this sequence for protein stability index at or above 3: YIIIVPLKKSRGKFIKPWESPDEM [PTPRD]
0.0

====

- Procedure Summary: protein stability index of a GFP-peptide fusion (GPS, HEK-293T) (PSI 1-6); higher = more stable
- Test Parameters: treatment: DMSO; c terminus: a fixed tail appended
List of protein stability index values.

// known answers, use as guide
seq="VWSCEGCKAFFKRSIQGHNDYICP [ESR2]" experimental_result=2.32
seq="IRVQGREFRAHRAVLAASSPYFHD [ZBTB22]" experimental_result=2.55

# protein stability index (sequence: VQWKEPEEPNGQIQGYRVYYTMDP [PTPRD] ) is 3.3

Given item YTVLGDTLIDGGEHYWEVRYEPDS [FSD1] , the value recorded as its protein stability index is 3.02

Noted for VEPETRAVIRWMHSFNFVLSANLH [CPN1] : its protein stability index reads 3.1

Noted for KETDPLTFNFISSLKAICTEIANC [PLD5] : its protein stability index reads 2

GET /value?item= AESDYSNNIMKCRSRYDGHRIWMY [LOXL2] &field=protein stability index returns 2.4

Documented protein stability index of DMKYGIYAVENEHMNRLQSQRAML [VTI1B] : 2.72

Measured protein stability index, TAFNFFKMAVSRHLTRGRKMAHVI [BRF1] : 2.66

Sure, the documented protein stability index for SPPAAPCPPPPGPAAAPEGDWARL [ZBED3] is 5.08

Field protein stability index (entry ALSFTLLGSAPLDQEPLLSIDLGT [NEK8] ) reads 2.29

====

# reported protein stability index; entries follow
- Procedure Summary: protein stability index of a GFP-peptide fusion (GPS, HEK-293T) (PSI 1-6); higher = more stable
- Test Parameters: treatment: MLN4924 1 uM, 8 h; c terminus: a fixed tail appended
Answer as a number with no unit attached.

// below: answered sequences
seq="HDYHGILVDEEEKVLIQKNLGPKS [ADD1]" experimental_result=4.9
seq="IPSTPEEVSADDETPNPPQSAQIA [MAGEA10]" experimental_result=5.44
seq="SGASPKESTNPEKAHETLHQSLSL [CDC25A]" experimental_result=4.83
seq="ANFSLGSINQRLNKRERSKLKNLR [RNF180]" experimental_result=3.28
seq="LWLTASQPCSIVDVEFLPVYHPSP [LPCAT4]" experimental_result=2.53

Recorded result, NGCRSGEIFAIDLRCGNQGKGWKA [DCAF4] , protein stability index: 2.2

Looking up FPKQILDQNNVIENEETGEFSIDN [MIA2] , I see its protein stability index listed as 5.06

====

- Procedure Summary: protein stability index of a GFP-peptide fusion (GPS, HEK-293T) (PSI 1-6); higher = more stable
- Test Parameters: treatment: DMSO; c terminus: a fixed tail appended
We begin with a simple list: items and their reported protein stability index.
Reply with just the number.

Check out these entries, answers already filled in.
seq="GPGYWMCCHRSQKGFPGCKLGLHD [FBXO34]" experimental_result=2.21
seq="STPQGKGEVVKIPSRVHGSLEPFR [PWWP2B]" experimental_result=3.86
seq="GWLQHDFGHLSVFSTSKWNHLLHH [FADS1]" experimental_result=2.04
seq="LDGALRTFLKAFPLMGETQERERV [PSD2]" experimental_result=2.96
seq="GEKPYECVQCGKSYSQSSNLFRHQ [ZNF24]" experimental_result=2.4
seq="SVSLNKTARPFGAPPPADSAPQQN [PDLIM7]" experimental_result=4.42
seq="GSRMMAVAALVVNFSQPVAGRPSL [NLN]" experimental_result=3.1
seq="AAGGVPGGGSNNGKTPVCHQCHKV [PDLIM7]" experimental_result=3.32
seq="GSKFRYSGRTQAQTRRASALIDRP [EPB41L3]" experimental_result=3.35
seq="SKILSSKSKAYTVVGTPCYISPEL [NEK8]" experimental_result=2.82

Read the next record carefully.
For record SLSAALLTAALLTFDTGCLTLSQY [POMT2] the listed protein stability index is 3.29

====

- Procedure Summary: protein stability index of a GFP-peptide fusion (GPS, HEK-293T) (PSI 1-6); higher = more stable
- Test Parameters: treatment: MLN4924 1 uM, 8 h; c terminus: a fixed tail appended
Endpoint Name: protein stability index

seq="VDEVSVSLRLWDTFGDHHKDRRFA [RHOBTB1]" endpoint_name="protein stability index" experimental_result=3.08

Measured protein stability index of LVPETEDDRKLAALLKFHTLDSYE [YJU2B] : 3.58

The sequence VEINDLDPEVFKEMMRFIYTGRAP [SPOPL] showed protein stability index equal to 2.05

protein stability index measured on ARQHALYIWEKSIGNLVKILHGTR [RBBP5] = 2.5

====

- Procedure Summary: protein stability index of a GFP-peptide fusion (GPS, HEK-293T) (PSI 1-6); higher = more stable
- Test Parameters: treatment: MLN4924 1 uM, 8 h; c terminus: a fixed tail appended
Label Satisfied when protein stability index is at or above 3; otherwise label Not satisfied.

Answered cases to consult:
seq="PRSGEQAEGSPGGPGDSQGRKRRQ [CDKN1A]" class_label=Satisfied
seq="IHGGVVNIHENKRTGSLFKIWLVV [KLHDC10]" class_label="Not satisfied"
seq="LEAGASAASTAAALENLQVEASCS [TRIM39]" class_label=Satisfied
seq="QADLELDYNPPRVQLSDEMFVFQD [CBY2]" class_label=Satisfied
seq="DLSVPLMDVGETAMVTADSKYCYG [FKBP8]" class_label=Satisfied
seq="SKLDTTKALNLLPANTQINDIRIF [VPS39]" class_label="Not satisfied"
seq="TDRRVLLMFLDICSELNKLCQHFE [SPACA9]" class_label="Not satisfied"
seq="RYEEANNNQYSEGVQREAQRIALR [KMT2E]" class_label=Satisfied
seq="LHARLRELLCELGRPSMVWLSANP [PRAME]" class_label="Not satisfied"
seq="DSTLSYTETEATNSLITAPGEFSD [SMAD6]" class_label=Satisfied

Does the sequence VELLPPAPKGKGRKPAAGAQSAGT [BRD3] have recorded protein stability index that is 3 or more?
Satisfied

Textbook exercise: given the entry QGLKLYAVEISDHPGEHEVGEPEF [CPXM2] , state whether its protein stability index is greater than or equal to 3.
Satisfied

Decide: is the reported value of protein stability index for LKYLHEQEILHRDLKLGNFFINEA [PLK2] equal to or greater than 3?
Not satisfied

Answer whether protein stability index of ERLRLEQQKQQIMAALNSQTAVQF [ACBD3] is greater than or equal to 3.
Satisfied

Could you verify whether the entry PQGSGFCLGQLNLEQRSESVRRTR [SMAD6] shows protein stability index of no less than 3?
Satisfied

Could you tell me if the measured protein stability index of GDPEEPLTGFSWRGGSDPETTGIQ [ATL3] reaches 3 or more?
Satisfied

Hello, I need to know if DTKGKPTSRTQVYKPPALKKSNSP [ZC2HC1A] has measured protein stability index not below 3. Thanks!
Satisfied

Decide: is the reported value of protein stability index for TALLSSGFSLEDPQTHSNRIYRMI [HSP90AB1] equal to or greater than 3?
Not satisfied

Record LRGPSPWGFRLVGGRDFSAPLTIS [PDLIM4] ; criterion: protein stability index no lower than 3. Met?
Not satisfied

Reported protein stability index at or above 3? PLVTPPQSPVSPQPPAITQVHRQG [SMTNL2]
Satisfied

hey, is protein stability index for this one >= 3? FTEKLWPLFYPGIRAGRKNAAPLT [TRIM39]
Not satisfied
